# ASSAY: Half life in C57BL/6 mouse administered topically at 0.7% w/v thrice a day
# Type: ADME, organism-based
# STUDY CONDITIONS: in vivo, topical or ocular

>  <SMILES DATA>
Cc1cc(-c2cc(O)ccc2Cl)cc2nnc(Nc3ccc(OCCN4CCCC4)cc3)nc12

>  <UNIT LABEL>
min

>  <half-life>
30

$$$$

###

# ASSAY: Stability in Dutch-belted rabbit eye assessed as hydrolysis rate
# Format: ADME, tissue-based, Oryctolagus cuniculus

>  <SMILES DATA>
Cc1cccc(C)c1C(=O)Oc1ccc(Cl)c(-c2cc(C)c3nc(Nc4ccc(OCCN5CCCC5)cc4)nnc3c2)c1

>  <Stability / ng/mL/h>
1.1

$$$$
>  <SMILES DATA>
Cc1cc(-c2cc(OC(=O)c3ccccc3)ccc2Cl)cc2nnc(Nc3ccc(OCCN4CCCC4)cc3)nc12

>  <Stability / ng/mL/h>
288

$$$$
>  <SMILES DATA>
Cc1cc(-c2cc(OC(=O)C(C)(C)C)ccc2Cl)cc2nnc(Nc3ccc(OCCN4CCCC4)cc3)nc12

>  <Stability / ng/mL/h>
172

$$$$
>  <SMILES DATA>
Cc1cc(-c2cc(OC(=O)c3c(Cl)cccc3Cl)ccc2Cl)cc2nnc(Nc3ccc(OCCN4CCCC4)cc3)nc12

>  <Stability / ng/mL/h>
1.7

$$$$

###

# ASSAY: Stability at 120 degC after 1 hr
# Type: physicochemical
# STUDY CONDITIONS: read-out: Stability
Measured remaining at 1 h, listed per entry for reference.

>  <SMILES DATA>
Cc1cc(-c2cc(OP(=O)(O)O)ccc2Cl)cc2nnc(Nc3ccc(OCCN4CCCC4)cc3)nc12

>  <remaining at 1 h>
< 20%

$$$$
>  <SMILES DATA>
Cc1cc(-c2cc(OC(=O)C(C)C)ccc2Cl)cc2nnc(Nc3ccc(OCCN4CCCC4)cc3)nc12

>  <remaining at 1 h>
50%

$$$$
>  <SMILES DATA>
Cc1cc(-c2cc(OC(=O)C(C)(C)C)ccc2Cl)cc2nnc(Nc3ccc(OCCN4CCCC4)cc3)nc12

>  <remaining at 1 h>
> 90%

$$$$

###

# ASSAY: Tmax in C57BL/6 mouse choroid/sclera at 137 nM instilled per eye
# Type: ADME, organism-based
# STUDY CONDITIONS: topical or ocular, 137 nM per eye

>  <SMILES DATA>
Cc1cc(-c2cc(O)ccc2Cl)cc2nnc(Nc3ccc(OCCN4CCCC4)cc3)nc12

>  <UNIT LABEL>
min

>  <Tmax at 0.137 µM>
30

$$$$

###

# ASSAY: Tmax in C57BL/6 mouse plasma at 137 nM instilled per eye
# Assay type: ADME, organism-based
# STUDY CONDITIONS: topical or ocular, 137 nM per eye
READOUT LABEL: Tmax at 0.137 µM (h)

>  <SMILES DATA>
Cc1cc(-c2cc(O)ccc2Cl)cc2nnc(Nc3ccc(OCCN4CCCC4)cc3)nc12

>  <READOUT LABEL>
Tmax at 0.137 µM

>  <QUANTITATIVE RESULT>
6

$$$$

###

# ASSAY: Tmax in C57BL/6 mouse retina at 172 nM instilled per eye
# Assay type: ADME, organism-based
# STUDY CONDITIONS: topical or ocular, 172 nM per eye

>  <MOLECULE>
Cc1cc(-c2cc(OC(=O)c3ccccc3)ccc2Cl)cc2nnc(Nc3ccc(OCCN4CCCC4)cc3)nc12 [TG100-801]

>  <Tmax at 0.172 µM [h]>
24

$$$$
